# Test target: T1, HA-GCN4 hAPRIL (amino acid residues 105-250) (human, UniProt O75888 105-250)
# T1 construct: Bought (R&D Systems); also called HA-tagged GCN4 human APRIL; HA-GCN4-huAPRIL; not shown: N-terminal HA tag; GCN4 isoleucine zipper oligomerization domain
# T1 sequence: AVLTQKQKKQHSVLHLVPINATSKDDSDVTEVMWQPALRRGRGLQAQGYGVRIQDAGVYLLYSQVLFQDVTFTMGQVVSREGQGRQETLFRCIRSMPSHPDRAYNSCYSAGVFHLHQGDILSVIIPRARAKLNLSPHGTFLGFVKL
# Assay notes: blocking ELISA; blocked: human APRIL binding to BCMA-Fc
Quick list: IC50 per entry.
Measured quantity: IC50 (nM)

{"columns": ["Binder", "Observed"],
 "data": [
  ["monoclonal antibody 2419-1406 (antibody, V domains shown) VH: QVQLVQSGAEVKKPGASVKVSCKASGYTFTDYTIHWVRQATGQGLEWMGWIYPLRGSINYAQKFQGRVTMTADKSISTVYMELSSLRSEDTAVYFCARHGAYYSNAFDYWGQGTLVTVSS VL: EIVMTQSPATLSVSPGERATLSCRASESVDNDGIRFLHWYQQKPGQAPRLLIYRASTRATGIPARFSGSGSRTEFTLTISSLQSEDFAVYYCQQSNKDPYTFGGGTKVEIK", 0.11],
  ["monoclonal antibody 2419-0205 (antibody, IgG2, V domains shown) VH: QVQLVQSGAEVKKPGSSVKVSCKASGYTFTDYTIHWVRQAPGQGLEWMGWIYPLRGSINYAQKFQGRVTITADKSTSTAYMELSSLRSEDTAVYFCARHGAYYSNAFDYWGQGTLVTVSS VL: EIVMTQSPATLSVSPGERATLSCRASESVDNDGIRFLHWYQQKPGQAPRLLIYRASNRETGIPARFSGSGSGTEFTLTISSLQSEDFAVYYCQQSNKDPYTFGGGTKVEIK", 0.17],
  ["monoclonal antibody 4540-063 (antibody, IgG1, V domains shown) VH: QVQLVQSGAELKKPGASVKVSCKASGYTFADYYMNWVRQAPGQGLEWMGWIFPGSGSTYYNQKFQGRVTMTVDKSSSTAYMELSRLRSDDTAVYYCARGDSGRAMDYWGQGTLVTVSS VL: DIQMTQSPSSLSASVGDRVTITCQASQDINKYLAWYQHKPGKAPKLLIHYTSTLETGVPSRFSGSGSGTDFTFTISSLQPEDIATYYCLQYDNLLTFGGGTKVEIK", 1.92],
  ["2419-1305 (antibody, V domains shown) VH: QVQLVQSGAEVKKPGASVKVSCKASGYTFTDYTIHWVRQATGQGLEWMGWIYPLRGSINYAQKFQGRVTMTANKSISTVYMELSSLRSEDTAVYFCARHGAYYSNAFDYWGQGTLVTVSS VL: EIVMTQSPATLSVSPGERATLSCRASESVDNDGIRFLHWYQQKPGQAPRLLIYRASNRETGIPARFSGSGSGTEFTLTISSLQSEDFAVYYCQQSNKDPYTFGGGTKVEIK", 0.15],
  ["monoclonal antibody 4540 (antibody, V domains shown, mouse-derived) VH: QVQLQQSGPELVKPGASVKISCKASGYTFADYYINWVKQRPGQGLEWIGWIFPGSGSTYYNEKFKGKATLTVDKSSSTAYMLLSSLTSEDSAVYFCARGDSGRAMDYWGQGTSVTVSS VL: DIQMTQSPSSLSASLGGKVTITCKASQDINKYIAWYQHKPGKGPRLLIHYTSTLQSGIPSRFSGSGSGRDYSFSISNLEPEDNATYYCLQYDNLLTFGAGTKLELK", 0.67],
  ["2419-0406 (antibody, V domains shown) VH: QVQLVQSGAEVKKPGSSVKVSCKASGYTFTDYTIHWVRQAPGQGLEWMGWIYPLRGSINYAEKFKGRVTLTADKSTSTVYMELSSLRSEDTAVYFCARHGAYYSNAFDYWGQGTLVTVSS VL: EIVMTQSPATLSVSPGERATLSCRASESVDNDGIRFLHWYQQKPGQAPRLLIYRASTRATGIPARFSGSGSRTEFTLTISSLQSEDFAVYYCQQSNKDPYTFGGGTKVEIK", 0.25]
]}
